Assay: qHTS assay to identify small molecule agonists of the retinoic acid receptor (RAR) signaling pathway (AID 1159553)
Conditions: C3RL4 RARE luciferase reporter, agonist, 6 h; series mostly up to 73.3 µM
Results filed as inconclusive are left out. Calls of active or inactive are those of the source. The call rests on the fitted dose curve; in most records, active means well fitted activation curve with a large enough effect in the repeat runs; inconclusive means weak or mixed curves, or effect the other way; inactive means no such curve, though single readings can be large or run the other way.
Classes used: true = active, false = inactive

1. CN(C)c1ccc(SC#N)cc1	false
2. O=C(c1ccc(F)cc1)C1CCN(CCn2c(=O)[nH]c3ccccc3c2=O)CC1	false
3. COc1ccc(C(=O)/C(Br)=C\C(=O)O)cc1	true
4. CC(C)(C)C(=O)OCOC(=O)C1N2C(=O)CC2S(=O)(=O)C1(C)C (stereo not given)	false
5. CCN(C(=O)N(CC)c1ccccc1)c1ccccc1	false
6. CCCCCCCCCOC(=O)c1ccc(O)cc1	false
7. O=[N+]([O-])c1cc(Cl)c(Cl)c(Cl)c1Cl	false
8. Cc1ccc2oc(CN(Cc3ccccc3)C(=O)Nc3c(F)cc(F)cc3F)c(-c3ccc(Cl)cc3)c2c1	false
9. CC(C)(C)C(=O)OCOC(=O)[C@@H]1N2C(=O)[C@@H](NC(=O)[C@H](N)c3ccccc3)[C@H]2SC1(C)C	false
10. CCC(N)(CO)CO	false
11. CCOC(=O)/C=C(C)/C=C/C=C(C)/C=C/c1c(C)cc(OC)c(C)c1C	true
12. Cc1cc(=O)oc2cc(N(C)C)ccc12	false
13. N#CC1(c2ccc(F)cc2)CCC(=O)CC1	false
14. Cc1[nH]cnc1C[C@H]1CCc2c(C)c3ccccc3n2C1=O	false
15. S=c1[nH]c2ccccc2s1	true
16. CCCCCOc1ccccc1/C(=C\SC)n1ccnc1	true
17. Clc1ccccc1C(c1ccccc1)(c1ccccc1)n1ccnc1	false
18. CCCC(C)c1ccccc1O (stereo not given)	false
19. Clc1ccc(C(Cn2ccnc2)OCc2ccc(Sc3ccccc3)cc2)c(Cl)c1 (stereo not given)	false
20. CCC(Cl)C(Cl)C(Cl)CC(Cl)C(Cl)C(C)Cl (stereo not given)	false
21. Cc1cccc(S(=O)(=O)O)c1C	false
22. CC1=C(/C=C/C(C)=C/C=C/C(C)=C/C=O)C(C)(C)CCC1	true
23. CCCCCCCCOC(=O)c1ccc(O)cc1	false
24. Nc1nc2ccccc2n1Cc1ccc(F)cc1	false
25. CN(C/C=C/C#CC(C)(C)C)Cc1cccc2ccccc12	false

====

Test: qHTS assay to identify small molecule antagonists of the retinoid-related orphan receptor gamma (ROR-gamma) signaling pathway - cell viability counter screen (AID 1159520); further: nearly all actives have a fitted effect of over 50% in size
Settings: Tet-on RORgamma CHO cells viability, ATP luminescence, 16 h; series mostly up to 92.4 µM
Records with an inconclusive call do not appear. Active and inactive are the calls of the source. Calls follow the shape of the dose curve; as a rule, active = well fitted cell-killing curve with a large enough effect in the repeat runs; inconclusive = weak or mixed curves, or effect the other way; inactive = no such curve, though single readings can be large or run the other way.
Classes used: active, inactive

1. CCCN(CCC)c1c([N+](=O)[O-])cc(C(F)(F)F)c(N)c1[N+](=O)[O-]	active
2. C/C=C(\C)C(=O)OCc1ccccc1	inactive
3. CC(C)(C)CC(C)(C)c1ccc(OCCOCC[N+](C)(C)Cc2ccccc2)cc1	active
4. O=[N+]([O-])c1ccccc1Nc1ccccc1	inactive
5. CN(C)c1ccc(C2(c3ccc(N(C)C)cc3)OC(=O)c3cc(N(C)C)ccc32)cc1	inactive
6. O=C(OCC1CO1)C1CCCCC1C(=O)OCC1CO1 (stereo unspecified)	inactive

====

Assay: A CellTox Green Cytotoxicity Assay to monitor cytotoxicity in HepG2 cells - 16 hour (AID 1224876); further: nearly all actives have a fitted effect of over 45% in size
Details: CellTox Green fluorescence; series mostly up to 76.8 µM
Results filed as inconclusive are left out. Activity calls are given as the source filed them. Calls follow the shape of the dose curve; as a rule, active = well fitted activation curve with a large enough effect in the repeat runs; inconclusive = weak or mixed curves; inactive = flat fitted curve, though single readings scatter.
Classes used: yes (1) (active), no (0) (inactive)

1) CCCCCCC[N+](CC)(CC)CCCCc1ccc(Cl)cc1	yes (1)
2) CC(C)c1ccc2c(c1)CC[C@H]1[C@](C)(CN)CCC[C@]21C	yes (1)
3) CCc1oc2ccccc2c1C(=O)c1cc(Br)c(O)c(Br)c1	no (0)
4) C=C(C)C(=O)OCC(O)COc1ccc(C(C)(C)c2ccc(OCC(O)COC(=O)C(=C)C)cc2)cc1 (stereo unspecified)	no (0)
5) CN(C)c1ccc(SC#N)cc1	no (0)
6) CCCCC(CC)CN=C(N)NC(N)=NCCCCCCN=C(N)NC(N)=NCC(CC)CCCC (stereo unspecified)	yes (1)
7) O=C1CCCc2c1cc1ccc3cccc4ccc2c1c34	no (0)
8) O=C(NO)C1(NS(=O)(=O)c2ccc(Oc3ccc(F)cc3)cc2)CCOCC1	no (0)
9) CC(C)CCCCCCCCCCCCCCC(=O)O	no (0)
10) [O-][n+]1ccccc1SSc1cccc[n+]1[O-]	yes (1)
11) O=C(N/N=C/c1ccccc1O)c1ccncc1	no (0)
12) NC(=O)C1(N2CCCCC2)CCN(CCCN2c3ccccc3CCc3ccc(Cl)cc32)CC1	yes (1)
13) Nc1ccc(N)c2ccccc12	yes (1)
14) NNc1nc(-c2ccc(N)cc2)cs1	no (0)
15) CCC(CN)=C(c1ccccc1)c1ccccc1	no (0)
16) CC1=NC(C)OC1C (stereo unspecified)	no (0)
17) Oc1ccc(C2(c3ccc(O)cc3)CC3CC2C2CCCC32)cc1 (stereo unspecified)	no (0)
18) NNc1nc(-c2ccc([N+](=O)[O-])cc2)cs1	no (0)
19) Clc1ccc(C(Cn2ccnc2)OCc2ccc(Sc3ccccc3)cc2)c(Cl)c1 (stereo unspecified)	no (0)
20) Clc1ccc2n[nH]nc2c1	no (0)
21) O=[N+]([O-])c1cc(Cl)c(Cl)c(Cl)c1Cl	no (0)
22) CCC(N)(CO)CO	no (0)
23) CC(C)(C)c1ccc(C(=O)O)cc1	no (0)
24) Nc1ccccc1O	no (0)
25) Cc1[nH]nc2c1N=C(c1ccccc1Cl)c1cc([N+](=O)[O-])ccc1N2	no (0)
26) Cc1nc(-c2ccc3c(c2)CCN(CCC2CCC(NC(=O)/C=C/c4ccc(F)cc4)CC2)CC3)no1 (stereo unspecified)	no (0)

====

Molecular target: Cytochrome P450 1A2 (Homo sapiens)
Test: Cytochrome P450 Family 1 Subfamily A Member 2 (CYP1A2) small molecule antagonists: luciferase reporter qHTS assay (AID 1671199); further: nearly all actives have a fitted effect of over 50% in size; further: potency means the concentration at half of the fitted maximal effect
Settings: P450-Glo CYP1A2 enzyme, luciferin luminescence, 1 h; series mostly up to 53 µM
Records with an inconclusive call do not appear. Active and inactive are the calls of the source. The call rests on the fitted dose curve; in most records, active means well fitted inhibition curve with a large enough effect in the repeat runs; inconclusive means weak or mixed curves; inactive means no such curve, though single readings can be large or run the other way.
measured.property: Potency

1. CCCCCCC[N+](CC)(CC)CCCCc1ccc(Cl)cc1	inactive
2. Cc1cc2c(cc1C(F)(F)F)N(C(=O)Nc1ccc(Oc3cccnc3C)nc1)CC2	72.1 µM (active)
3. Cc1cc(O)c(C(C)(C)C)cc1C(C)(C)C	35.6 µM (active)
4. O=C1C=CC(=O)N1	32.6 µM (active)
5. CC[C@@]1(O)C(=O)OCc2c1cc1n(c2=O)Cc2cc3c(CN(C)C)c(O)ccc3nc2-1	inactive
6. Cc1cc(=O)oc2cc(N(C)C)ccc12	6.33 µM (active)
7. CCC1=C[C@@H]2CN(C1)Cc1c([nH]c3ccccc13)[C@@](C(=O)OC)(c1cc3c(cc1OC)N(C)[C@H]1[C@@](O)(C(=O)OC)[C@H](OC(C)=O)[C@]4(CC)C=CCN5CC[C@]31[C@@H]54)C2	inactive
8. CSc1ccc2c(c1)C(N1CCN(C)CC1)Cc1ccccc1S2 (stereo unspecified)	inactive
9. c1cc(C(c2ccc(OCC3CO3)cc2)c2ccc(OCC3CO3)cc2)ccc1OCC1CO1 (stereo unspecified)	inactive
10. CC[C@H]1O[C@]2(CC[C@@H]1C)C[C@@H]1C[C@@H](C/C=C(\C)C[C@@H](C)/C=C/C=C3\CO[C@@H]4[C@H](O)C(C)=C[C@@H](C(=O)O1)[C@]34O)O2	inactive
11. NC(=O)N1C(=O)C(C(=O)c2cc(Cl)cs2)c2cc(F)c(Cl)cc21 (stereo unspecified)	17.8 µM (active)
12. Cc1nc(-c2ccc3c(c2)CCN(CCC2CCC(NC(=O)/C=C/c4ccc(F)cc4)CC2)CC3)no1 (stereo unspecified)	inactive
13. CC(=O)OCC(C)OC(C)=O (stereo unspecified)	inactive
14. CCc1cc(SCc2sc(-c3ccc(C(F)(F)F)cc3)nc2CN2CCN(c3ccc(OC)cc3)CC2)ccc1OCC(=O)O	inactive
15. CNCc1cc(F)ccc1Oc1ccc(Cl)c(Cl)c1	1 µM (active)
16. CC(C)(C)CC(C)(C)c1ccc(OCCOCC[N+](C)(C)Cc2ccccc2)cc1	inactive
17. CSc1ccc(/C=C2/C(C)=C(CC(=O)O)c3cc(F)ccc32)cc1	15.5 µM (active)
18. CCCCCCCCCCn1cc[n+](CCCCCCCCCC)c1C	71.1 µM (active)
19. Nc1c(Cl)cc(Cl)cc1Cl	15.7 µM (active)
20. O=C1c2ccccc2Cc2ccccc21	0.452 µM (active)
21. Nc1ccccc1O	15.7 µM (active)
